// provenance: the Human Domainome abundance scans (Beltran et al. 2025)

B1: POU domain, class 4, transcription factor 1, residues 266 to 347; numbered along this chain, Q01851 (parent)
chain: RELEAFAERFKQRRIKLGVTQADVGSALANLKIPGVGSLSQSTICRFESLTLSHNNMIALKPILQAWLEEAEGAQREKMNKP

Variants of: B1
Assay: abundance fitness (aPCA) (normalised: wild type 0, dead -1); higher = more abundant; growth selection in yeast, the domain comes from the species named
Conditions: Homo sapiens
Class membership depends on abundance fitness alone; the intervals are bottom bin (below -0.6), middle bin (-0.6 to below -0.05), top bin (-0.05 or more)

> print(dat)
   changes         cat
1     I44Y  bottom bin
2     L31V     top bin
3     L68S  middle bin
4     N30S     top bin
5     L17E  bottom bin

-- ask Tag the class for `I44R`
-- reply bottom bin

-- ask Tag the class for `K81C`
-- reply top bin

-- ask Tag the class for `E69V`
-- reply middle bin
